# System: ESO51 (Esophageal Adenocarcinoma)
# ASSAY DETAILS: Bliss excess, mean over the matrix (fraction); higher = more synergy
Readings of Bliss excess for the listed compounds

COMPOUND: Cc1c2c(nn1C)CSCc1cc(n(C)n1)CSc1cc(c3ccccc3c1)OCCCc1c(C(=O)O)n(C)c3c-2c(Cl)ccc13 [AZD5991] + CC1(C)CCC(CN2CCN(c3ccc(C(=O)NS(=O)(=O)c4ccc(NCC5CCOCC5)c([N+](=O)[O-])c4)c(Oc4cnc5[nH]ccc5c4)c3)CC2)=C(c2ccc(Cl)cc2)C1 [Venetoclax] (first compound max 1 µM, 7x7, partner max 1 µM)
STUDY TARGET: ESO51 (Esophageal Adenocarcinoma)
Bliss excess: -0.0008
//
COMPOUND: Cc1cc2ncnn2cc1Nc1ncc2c(n1)n(C1CCOCC1)c(=O)n2C [AZD7648] + O=C(c1cc(Cc2n[nH]c(=O)c3ccccc23)ccc1F)N1CCN(C(=O)C2CC2)CC1 [Olaparib] (first compound max 10 µM, 7x7, partner max 10 µM)
STUDY TARGET: ESO51 (Esophageal Adenocarcinoma)
Bliss excess: -0.0056
//
COMPOUND: COc1cc2ncnc(Nc3ccc(F)c(Cl)c3)c2cc1OCCCN1CCOCC1 [Gefitinib] + CC(C)n1c(=O)n(C)c2cnc3cc(F)c(-c4ccc(OCCCN5CCCCC5)nc4)cc3c21 [AZD1390] (first compound max 10 µM, 7x7, partner max 0.3 µM)
STUDY TARGET: ESO51 (Esophageal Adenocarcinoma)
Bliss excess: -0.0488

* * *

# Tested on: SU-DHL-5 (B-Cell Non-Hodgkin's Lymphoma)
# ASSAY DETAILS: combination Emax (second highest fraction inhibited in the dose matrix, 72 h); higher = more inhibition; extreme values may be limits of the assay

MOLECULE: CC1(C)CCC(CN2CCN(c3ccc(C(=O)NS(=O)(=O)c4ccc(NCC5CCOCC5)c([N+](=O)[O-])c4)c(Oc4cnc5[nH]ccc5c4)c3)CC2)=C(c2ccc(Cl)cc2)C1 [Venetoclax] + CCN(CCO)CCCOc1ccc2c(Nc3cc(CC(=O)Nc4cccc(F)c4)[nH]n3)ncnc2c1 [AZD2811] (first compound max 1 µM, 7x7, partner max 1 µM)
STUDY TARGET: SU-DHL-5 (B-Cell Non-Hodgkin's Lymphoma)
combination Emax: 0.778
//
MOLECULE: Cc1cc2ncnn2cc1Nc1ncc2c(n1)n(C1CCOCC1)c(=O)n2C [AZD7648] + CCN(CCO)CCCOc1ccc2c(Nc3cc(CC(=O)Nc4cccc(F)c4)[nH]n3)ncnc2c1 [AZD2811] (first compound max 10 µM, 7x7, partner max 1 µM)
STUDY TARGET: SU-DHL-5 (B-Cell Non-Hodgkin's Lymphoma)
combination Emax: 0.993
//
MOLECULE: NC1(C(=O)N[C@@H](CCO)c2ccc(Cl)cc2)CCN(c2ncnc3[nH]ccc23)CC1 [Capivasertib] + Cn1cnc2c(F)c(Nc3ccc(Br)cc3Cl)c(C(=O)NOCCO)cc21 [Selumetinib] (first compound max 10 µM, 7x7, partner max 10 µM)
STUDY TARGET: SU-DHL-5 (B-Cell Non-Hodgkin's Lymphoma)
combination Emax: 1
//
MOLECULE: COc1nnc2ccc(N3CCC(c4ccc(OCCN5CCN(C)C(=O)[C@H]5C)cc4)CC3)nn12 [AZD5153] + Cc1c2c(nn1C)CSCc1cc(n(C)n1)CSc1cc(c3ccccc3c1)OCCCc1c(C(=O)O)n(C)c3c-2c(Cl)ccc13 [AZD5991] (first compound max 1 µM, 7x7, partner max 1 µM)
STUDY TARGET: SU-DHL-5 (B-Cell Non-Hodgkin's Lymphoma)
combination Emax: 1

* * *

# Test system: MOLM-13 (Acute Myeloid Leukemia)
# ASSAY DETAILS: combination Emax (second highest fraction inhibited in the dose matrix, 72 h); higher = more inhibition; extreme values may be limits of the assay

MOLECULE: COc1nnc2ccc(N3CCC(c4ccc(OCCN5CCN(C)C(=O)[C@H]5C)cc4)CC3)nn12 [AZD5153] + Cn1cnc2c(F)c(Nc3ccc(Br)cc3Cl)c(C(=O)NOCCO)cc21 [Selumetinib] (first compound max 1 µM, 7x7, partner max 10 µM)
STUDY TARGET: MOLM-13 (Acute Myeloid Leukemia)
combination Emax: 1
//
MOLECULE: COc1nnc2ccc(N3CCC(c4ccc(OCCN5CCN(C)C(=O)[C@H]5C)cc4)CC3)nn12 [AZD5153] + C[C@@H]1COCCN1C2=NC(=NC(=C2)C3(CC3)[S@](=N)(=O)C)C4=C5C=CNC5=NC=C4 [AZD6738] (first compound max 1 µM, 7x7, partner max 10 µM)
STUDY TARGET: MOLM-13 (Acute Myeloid Leukemia)
combination Emax: 1
//
MOLECULE: CC1(C)CCC(CN2CCN(c3ccc(C(=O)NS(=O)(=O)c4ccc(NCC5CCOCC5)c([N+](=O)[O-])c4)c(Oc4cnc5[nH]ccc5c4)c3)CC2)=C(c2ccc(Cl)cc2)C1 [Venetoclax] + C[C@@H]1COCCN1C2=NC(=NC(=C2)C3(CC3)[S@](=N)(=O)C)C4=C5C=CNC5=NC=C4 [AZD6738] (first compound max 1 µM, 7x7, partner max 10 µM)
STUDY TARGET: MOLM-13 (Acute Myeloid Leukemia)
combination Emax: 1

* * *

# Tested on: H9 (T-Cell Non-Hodgkin's Lymphoma)
# ASSAY DETAILS: Bliss excess, mean over the matrix (fraction); higher = more synergy

MOLECULE: CC(=O)c1c(C)c2cnc(Nc3ccc(N4CCNCC4)cn3)nc2n(C2CCCC2)c1=O [Palbociclib] + CN(CC[C@H](CSC1=CC=CC=C1)NC2=C(C=C(C=C2)S(=O)(=O)NC(=O)C3=CC=C(C=C3)N4CCC(CC4)[C@H](C5=CC=CC=C5C6=CC=C(C=C6)Cl)O)S(=O)(=O)C(F)(F)F)CCO [AZD4320] (first compound max 10 µM, 7x7, partner max 1 µM)
Bliss excess: -0.0114

MOLECULE: COc1nnc2ccc(N3CCC(c4ccc(OCCN5CCN(C)C(=O)[C@H]5C)cc4)CC3)nn12 [AZD5153] + CN(CC[C@H](CSC1=CC=CC=C1)NC2=C(C=C(C=C2)S(=O)(=O)NC(=O)C3=CC=C(C=C3)N4CCC(CC4)[C@H](C5=CC=CC=C5C6=CC=C(C=C6)Cl)O)S(=O)(=O)C(F)(F)F)CCO [AZD4320] (first compound max 1 µM, 7x7, partner max 1 µM)
Bliss excess: -0.0291

MOLECULE: COc1nnc2ccc(N3CCC(c4ccc(OCCN5CCN(C)C(=O)[C@H]5C)cc4)CC3)nn12 [AZD5153] + CC1(C)CCC(CN2CCN(c3ccc(C(=O)NS(=O)(=O)c4ccc(NCC5CCOCC5)c([N+](=O)[O-])c4)c(Oc4cnc5[nH]ccc5c4)c3)CC2)=C(c2ccc(Cl)cc2)C1 [Venetoclax] (first compound max 1 µM, 7x7, partner max 1 µM)
Bliss excess: 0.0162

* * *

# Tested on: RD (Rhabdomyosarcoma)
# ASSAY DETAILS: combination Emax (second highest fraction inhibited in the dose matrix, 72 h); higher = more inhibition; extreme values may be limits of the assay
Assign 1 to entries whose combination Emax meets or exceeds 0.5; assign 0 to the rest.

COMPOUND: Cc1c2c(nn1C)CSCc1cc(n(C)n1)CSc1cc(c3ccccc3c1)OCCCc1c(C(=O)O)n(C)c3c-2c(Cl)ccc13 [AZD5991] + CCN(CCO)CCCOc1ccc2c(Nc3cc(CC(=O)Nc4cccc(F)c4)[nH]n3)ncnc2c1 [AZD2811] (first compound max 1 µM, 7x7, partner max 1 µM)
LABEL CLASS: 1
--
COMPOUND: COc1cccc(OCCCN)c1-c1cc(Nc2cnc(C#N)cn2)n[nH]1 [Prexasertib] + O=C(c1cc(Cc2n[nH]c(=O)c3ccccc23)ccc1F)N1CCN(C(=O)C2CC2)CC1 [Olaparib] (first compound max 1 µM, 7x7, partner max 10 µM)
LABEL CLASS: 1
--
COMPOUND: Cc1c2c(nn1C)CSCc1cc(n(C)n1)CSc1cc(c3ccccc3c1)OCCCc1c(C(=O)O)n(C)c3c-2c(Cl)ccc13 [AZD5991] + Cc1cc2ncnn2cc1Nc1ncc2c(n1)n(C1CCOCC1)c(=O)n2C [AZD7648] (first compound max 1 µM, 7x7, partner max 10 µM)
LABEL CLASS: 1
--
COMPOUND: CN(CCO)CC[C@H](CSc1ccccc1)Nc1ccc(S(=O)(=O)NC(=O)c2ccc(N3CCC([C@@H](O)c4ccccc4-c4ccc(Cl)cc4)CC3)cc2)cc1S(=O)(=O)C(F)(F)F [AZD4320] + Cn1cnc2c(F)c(Nc3ccc(Br)cc3Cl)c(C(=O)NOCCO)cc21 [Selumetinib] (first compound max 1 µM, 7x7, partner max 3 µM)
LABEL CLASS: 1
--
COMPOUND: Cc1cc2ncnn2cc1Nc1ncc2c(n1)n(C1CCOCC1)c(=O)n2C [AZD7648] + CCN(CCO)CCCOc1ccc2c(Nc3cc(CC(=O)Nc4cccc(F)c4)[nH]n3)ncnc2c1 [AZD2811] (first compound max 10 µM, 7x7, partner max 1 µM)
LABEL CLASS: 0
--
COMPOUND: CN(C)CCCOc1ccc(-c2ccc3ncc4c(c3c2)n(C2CCOCC2)c(=O)n4C)cn1 [AZD0156] + C[C@@H]1COCCN1C2=NC(=NC(=C2)C3(CC3)[S@](=N)(=O)C)C4=C5C=CNC5=NC=C4 [AZD6738] (first compound max 1 µM, 7x7, partner max 10 µM)
LABEL CLASS: 0
--
COMPOUND: CCc1c2c(nc3ccc(O)cc13)-c1cc3c(c(=O)n1C2)COC(=O)[C@]3(O)CC [SN-38] + CN(C)CCCOc1ccc(-c2ccc3ncc4c(c3c2)n(C2CCOCC2)c(=O)n4C)cn1 [AZD0156] (first compound max 0.3 µM, 7x7, partner max 1 µM)
LABEL CLASS: 0
